Each recorded value in this set is attributed to the supplement of paper PMC10567573.

B1: FCHSD1 (parent)
chain: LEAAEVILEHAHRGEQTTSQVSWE

- Variants of: B1
- TEST_DETAILS: protein stability index of a GFP-peptide fusion (GPS, HEK-293T) (PSI 1-6); higher = more stable;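 also: lentivirally expressed fusions sorted by FACS into six bins by GFP to DsRed ratio, PSI derived from sequencing read proportions per bin multiplied by bin number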
- MEASUREMENT_PARAMETERS: c terminus: a fixed tail appended
PROPERTY_NAME: protein stability index

1) L8H; 4.74
2) V21E; 5.07
3) Q20C; 3.95
4) T17E; 5.06
5) S19R; 4.42
6) I7E; 4.64
7) A4L; 2.59
8) T18H; 4.09
9) E5M; 2.4
10) T18N; 3.69
11) E24I; 2.01
12) W23P; 5.29
13) A4R; 3.59
14) Q16K; 4.24
15) A3N; 4.43
16) Q16N; 3.97
17) V21I; 3.5
18) G14M; 3.45
19) E9Y; 2.33
20) E9L; 2.52
21) T17V; 4.37
22) T17Q; 4.51
